# Test system: SF-539
# experimental_details: NCI tumour cell line growth inhibition, 48 h
Calls of active or inactive are those of the source. No stated cut-off is given here; in the data, active = GI50 up to about 1.1 µM and inactive = higher.
Classes used: active, inactive

molecule | assigned_class
Clc1ccc(Cc2nc3cc(Cl)ccc3o2)cc1 | inactive
O=C1c2cccc3cccc(c23)C(=O)N1CCCNCCCCNCCCN1C(=O)c2cccc3cccc(c23)C1=O | active
CCOC(=O)c1nc(-c2ccccc2)oc1OCC | inactive
CCOP(=O)(OCC)/C(C#N)=C/c1ccc(-c2ccc(F)cc2F)o1 | inactive
CCOC(=O)C1=C(Nc2ccccc2)SC/C1=N\NC(=O)Cc1ccccc1 | inactive
O=S1(=O)Cc2ccc3c4c2-c2c(ccc5ccc(c-4c25)CS(=O)(=O)C3)C1 | inactive
COc1ccc(C(=C[N+](=O)[O-])c2ccc(OC)cc2)cc1 | inactive
CC(=O)OC1CC2C(C)(C)C(=O)C=CC2(C)C2CCC3(C)C(c4ccoc4)OC(=O)C4OC43C12C (stereo not given) | inactive
[O-][S+](c1ccccc1)c1ccc(/N=N/O)nc1 (stereo not given) | inactive
Fc1cc(C2=C[C@H](c3ccc(Cl)cc3)NC(=S)N2)c(Cl)cc1Cl | inactive

* * *

# System: A498
# experimental_details: NCI tumour cell line growth inhibition, 48 h
Active and inactive are the calls of the source. Rule as the data show it: active = GI50 up to about 1.1 µM and inactive = higher.
Classes used: True for active, False for inactive

molecule | assigned_class
O=C(O)Cc1ccc(Oc2nc3ccccc3nc2-c2ccccc2)cc1 | False
O=C(Nc1ccc(Sc2ccc(/N=N/c3c(O)c(S(=O)(=O)O)cc4cc(S(=O)(=O)O)ccc34)cc2)cc1)c1ccc(/N=N/c2c(O)ccc3c(S(=O)(=O)O)cc(S(=O)(=O)O)cc23)cc1 | False
CCCCc1ccc(N2C(=O)c3cc([N+](=O)[O-])cnc3S2(=O)=O)cc1 | False
CCCCCCCCCCCCC(CC)CCCCC(=O)O (stereo unspecified) | False
[O-][S+](c1ccccc1)c1ccc(/N=N/O)nc1 (stereo unspecified) | False
CCCCCCCCCCCC(=O)OCC1OC(OC)C(NC(=O)N(CCCl)N=O)C(O)C1O (stereo unspecified) | False
COC(=O)[C@](C)(Cc1ccccc1)NC(=O)[C@@H](C)N1[C@@H](c2ccccc2)COC1(C)C | False
CN1C(=O)N(c2ccccc2)C2(CCN(CC3COc4ccccc4O3)CC2)C1=O (stereo unspecified) | False
Nc1ccc(S(=O)(=O)Nc2nnc(S(N)(=O)=O)s2)cc1 | False
CCCCCCCCCCCCCCCc1ccc(OCC(O)CO)cc1 (stereo unspecified) | False
COC(=O)C(CCSc1ccccc1)C(=O)OC | False
COc1cc(NCc2ccc3nc(N)nc(N)c3c2C)cc(OC)c1OC | False
O=C(c1cccs1)N(C(=S)OCc1ccccn1)c1ccccc1 | False
Cc1cccc2[nH]c3c(c(O)cc4[nH]c5cccc(C)c5c(=O)c43)c(=O)c12 | False
O=c1/c(=C/c2ccc3c(c2)OCO3)sc2nnc(-c3ccco3)n12 | False
CC(=O)c1ccc(Oc2ccc(/C(C)=N\N=C(N)N)cc2)cc1 | False
CN1/C(=N\c2ccccc2)S/C1=N/c1ccccc1 | False
COC1CC(OC2CCC3(C)C(CCC45CCC(C6=CC(=O)OC6)C(C)(CCC43)C5=O)C2)OC(C)C1O (stereo unspecified) | False
O=c1nc(N2CCNCC2)oc2cc(Cl)oc(=O)c12 | False
O=C(Nc1ccc(Cl)cc1)C1C(=O)C(=O)N(c2ccc(Cl)cc2)C1=O (stereo unspecified) | False
CC(=O)Nc1ccc2c3c(cc(O)c2c1)N(C(=O)CCCCC(=O)N1CC(CCl)c2c1cc(O)c1cc(NC(C)=O)ccc21)CC3CCl (stereo unspecified) | True
c1ccc2c(c1)ccc1nc(-c3ccc4c(c3)OCO4)c3c(c12)CCCC3 | False
O=c1oc2ccccc2c(-c2ccc(O)cc2)c1Oc1ccc(Cl)cc1 | False
COc1cc2c(cc1O)CC13CCC(=O)N1CCc1cc(OC)c(O)c-2c13 (stereo unspecified) | False
Cc1ccc(S(=O)(=O)N2CC3OC(C)(C)OC3C2CO)cc1 (stereo unspecified) | False
Cc1ccccc1OC(C)C(=O)NN1C(=O)CC(=O)NC1=S (stereo unspecified) | False
CCOC(=O)C1=C(C)N(C2OC(COC(C)=O)C(OC(C)=O)C(OC(C)=O)C2OC(C)=O)C(=O)NC1c1ccccc1 (stereo unspecified) | False
CCN(CC)CCC(=O)N1C/C(=C/c2ccccc2)C(=O)/C(=C\c2ccccc2)C1 | False
Cc1oc2nc(N(C)C)n3nnnc3c2c1C | False
COc1cc2cc[n+]3c(C)c4cc(OC)c(OC)cc4c([O-])c3c2cc1OC | False
O=C(/C=N/O)Nc1cc(Cl)c(Cl)cc1Cl | False
CCCCCCc1cc2cc(C(=O)Nc3cccc(C(F)(F)F)c3)c(=N)oc2cc1O | False
O=C1CSC(c2cccs2)N1c1nc2cc3sc(N4C(=O)CSC4c4cccs4)nc3cc2s1 (stereo unspecified) | False
O=C(c1cc(Cl)cc(Cl)c1)N(C(=S)OC12CC3CC(CC(C3)C1)C2)c1ccccc1 | False
O=C(N/N=C(COc1ccccc1)\N=C\c1ccncc1)c1ccncc1 | False
CN(C)CCSc1cc(-c2ccccc2)c2ccccc2n1 | False
Cc1cn(C2CC(O)C(CO)O2)c(=O)[nH]c1=O (stereo unspecified) | False
O=S1(=O)Cc2ccc3c4c2-c2c(ccc5ccc(c-4c25)CS(=O)(=O)C3)C1 | False
CS(=O)(=O)Nc1ccc2c(c1)N(S(C)(=O)=O)CC2CCl (stereo unspecified) | False
CCCCCCCCCCCCCCCC(=O)OCC1OC(n2cc(F)c(=O)[nH]c2=O)C(NC(=O)OCc2ccccc2)C(O)C1O (stereo unspecified) | False
CCOC(=O)C(=O)CC(=O)C1=C(c2ccccc2OC)CC(c2cccs2)=CC1=O | False
